FYI, the data here is from PubChem BioAssay AID1259426.

Target: HEK293 Galpha15/GCaMP6s without NPYLR7, calcium fluorescence
Assay: nonspecific activation in parental Galpha15/GCaMP6s cells – cell-based, HEK293 lacking NPYLR7, counter-screen for mosquito NPYLR7 agonist project, dose response (AID 1259426);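 also: potency for a rise in fluorescence over baseline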
The source made the active and inactive calls.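 The calls were made as follows: active = EC50 under a set limit in control cells lacking the mosquito receptor, marking a fluorescence artifact; inactive = the rest.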
Respond only with the outcome that fits, drawn from active, inactive

1) CCOC=C(C#N)c1nc(C)cs1: active
2) COc1cc(C=C(C#N)C(=O)OC(C)C)cc(Cl)c1O: inactive
3) CCN(CC)c1ccc2cc(C(N)=O)/c(=N\NC(N)=S)oc2c1: active
4) Cc1ccc2nc(Cn3cnc4c(Cl)cc(Cl)cc4c3=O)cc(=O)n2c1: inactive
5) c1ccc(CNc2nc(NCCc3ccncc3)c3sccc3n2)cc1: active

Input line: Short answer needed: outcome of this test for `Cc1ccc(C(=O)C=Cc2ccc(N(C)C)cc2)o1` ?
Output line: active

Input line: Now the same for `O=C(O)CCn1c(O)c(C=C2C=Nc3ccccc32)sc1=S`
Output line: active

Input line: Now the same for COc1cc(C(=O)N2CCOC(c3ccccc3)C2)cc(OC)c1C (centres undefined)
Output line: inactive

Input line: Now the same for `Cc1cccc(Oc2nc3ccccn3c(=O)c2/C=C(\C#N)c2nc3ccccc3s2)c1`
Output line: inactive

Input line: Now the same for N#CC1C(=N)Oc2cc(O)ccc2C1c1ccccc1I (centres undefined)
Output line: active

Input line: Now the same for `CCOC(=O)c1ccccc1-c1c2ccc(=N)cc-2oc2cc(N)ccc12`
Output line: active
